Attribution: paper PMC12652113

assay: Absorption and fluorescence photophysical characterization in organic solvents; type: physicochemical; details: methanol (MeOH)
Reported fluorescence quantum yield (ΦF) values are given for each entry in this list.
Hey, just send me the number, nothing else.

Below: 3 compounds and their reported fluorescence quantum yield (ΦF).
chemical.structure | fluorescence quantum yield (ΦF)
CNC1=C(C=C2N(CCCc3ccccc3)c3ccccc3C2(C)C)C(=O)C1=CC1=[N+](CCCc2ccccc2)c2ccccc2C1(C)C.[I-] | 0.01
CC1(C)C(=CC2=C([O-])C(=CC3=[N+](CCCc4ccccc4)c4ccccc4C3(C)C)C2=O)N(CCCc2ccccc2)c2ccccc21 | 0.16
CC1(C)C(=CC2=C(NCc3ccc4ccc5cccc6ccc3c4c56)C(=CC3=[N+](CCCc4ccccc4)c4ccccc4C3(C)C)C2=O)N(CCCc2ccccc2)c2ccccc21.[I-] | 0.01

# next compound below
The compound listed as "CC1(C)C(=CC2=C(N)C(=CC3=[N+](CCCc4ccccc4)c4ccccc4C3(C)C)C2=O)N(CCCc2ccccc2)c2ccccc21.[I-]" shows fluorescence quantum yield (ΦF) equal to 0.02

----------
Assay: Absorption and fluorescence photophysical characterization in organic solvents
Format: physicochemical
Conditions: chloroform (CFM)
Protocol: UV–Vis spectra were recorded on a Perkin-Elmer Lambda 25 spectrophotometer (Perkin-Elmer, Waltham, MA, USA) using Hellma Analytics quartz cuvettes (1 cm path length; Hellma Analytics, Müllheim, Germany). […] The latter was calculated according to the Lambert–Beer law from calibration plots of absorbance at λmax versus known dye concentrations. […] […] The absorption spectra of these dilutions were recorded and used to calculate molar extinction coefficients according to the Beer–Lambert law. […]
assay.readout: molar absorption coefficient (ε) (M⁻¹ cm⁻¹)
The reply should contain only the number, in M⁻¹ cm⁻¹.

Below: 3 compounds and their reported molar absorption coefficient (ε).
compound | output.unit | molar absorption coefficient (ε)
CC1(C)C(=CC2=C(N)C(=CC3=[N+](CCCc4ccccc4)c4ccccc4C3(C)C)C2=O)N(CCCc2ccccc2)c2ccccc21.[I-] [Dye 9] | M⁻¹ cm⁻¹ | 330000
CC1(C)C(=CC2=C(NCc3ccc4ccc5cccc6ccc3c4c56)C(=CC3=[N+](CCCc4ccccc4)c4ccccc4C3(C)C)C2=O)N(CCCc2ccccc2)c2ccccc21.[I-] [Dye 14] | M⁻¹ cm⁻¹ | 281000
CC1(C)C(=CC2=C([O-])C(=CC3=[N+](CCCc4ccccc4)c4ccccc4C3(C)C)C2=O)N(CCCc2ccccc2)c2ccccc21 [Dye 5] | M⁻¹ cm⁻¹ | 428000

The compound listed as CNC1=C(C=C2N(CCCc3ccccc3)c3ccccc3C2(C)C)C(=O)C1=CC1=[N+](CCCc2ccccc2)c2ccccc2C1(C)C.[I-] [Dye 11] shows molar absorption coefficient (ε) equal to 202000

----------
Reported emission maximum (λem) values are given for each entry in this list.
target: human serum albumin (HSA) (Homo sapiens); experiment: Fluorometric squaraine-albumin binding titration; details: phosphate buffer (pH 7.4), HSA presence
Sequence (P02768 25-609): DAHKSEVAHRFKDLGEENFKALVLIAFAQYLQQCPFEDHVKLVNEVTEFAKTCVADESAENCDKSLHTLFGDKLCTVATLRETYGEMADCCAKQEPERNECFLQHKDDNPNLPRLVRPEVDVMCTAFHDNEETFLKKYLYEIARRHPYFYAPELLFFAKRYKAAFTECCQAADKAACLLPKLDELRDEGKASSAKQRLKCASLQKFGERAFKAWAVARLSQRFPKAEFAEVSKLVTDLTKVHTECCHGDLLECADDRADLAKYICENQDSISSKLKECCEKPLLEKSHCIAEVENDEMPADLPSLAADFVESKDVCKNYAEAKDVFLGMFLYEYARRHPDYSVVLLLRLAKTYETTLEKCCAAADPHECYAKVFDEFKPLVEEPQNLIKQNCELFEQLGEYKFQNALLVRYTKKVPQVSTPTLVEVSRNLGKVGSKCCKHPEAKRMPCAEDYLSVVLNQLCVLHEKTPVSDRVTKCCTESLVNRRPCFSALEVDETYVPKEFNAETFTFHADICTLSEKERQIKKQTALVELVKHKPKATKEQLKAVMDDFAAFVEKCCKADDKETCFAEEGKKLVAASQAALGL
The reply should contain only the number, in nm.

Below: 3 molecules and their reported emission maximum (λem).
molecule | emission maximum (λem) (nm)
CC1(C)C(=CC2=C([O-])C(=CC3=[N+](CCCc4ccccc4)c4ccccc4C3(C)C)C2=O)N(CCCc2ccccc2)c2ccccc21 [Dye 5] | 649
CNC1=C(C=C2N(CCCc3ccccc3)c3ccccc3C2(C)C)C(=O)C1=CC1=[N+](CCCc2ccccc2)c2ccccc2C1(C)C.[I-] [Dye 11] | 662
CC1(C)C(=CC2=C(N)C(=CC3=[N+](CCCc4ccccc4)c4ccccc4C3(C)C)C2=O)N(CCCc2ccccc2)c2ccccc21.[I-] [Dye 9] | 659

# next molecule below
The molecule listed as CC1(C)C(=CC2=C(NCc3ccc4ccc5cccc6ccc3c4c56)C(=CC3=[N+](CCCc4ccccc4)c4ccccc4C3(C)C)C2=O)N(CCCc2ccccc2)c2ccccc21.[I-] [Dye 14] shows emission maximum (λem) equal to 667
